Target: BTK protein (Homo sapiens)
Construct: endogenous in cells; host or cells: TMD-8 cells
Assay: Measurement of BTK protein degradation ability in TMD-8 cells (Western blotting)
Assay type: cell-based
Details: compound 100 nM, harvested after 24 hours
Readout: BTK degradation (%) 100 nM
Use % as the unit, but write only the number.

>>> measured_result("Cc1cc(-c2ccnc(Nc3ccc(N4CCN(CC5CCN(c6ccc(NC7CCC(=O)NC7=O)cn6)CC5)CC4)cc3)n2)ccc1CNC(=O)c1cn(C(C)(C)C)nn1 (centres unmarked)")
100.0
>>> measured_result("Cc1cc(-c2ccnc(Nc3ccc(N4CCN(CC5CCN(c6ccc(NC7CCC(=O)NC7=O)cn6)CC5)CC4)cc3)n2)ccc1CNC(=O)N1CC(OC(C)C)C1 (centres unmarked)")
99.3
>>> measured_result("Cc1c(NC(=O)c2cnn(C(C)(C)C)c2)cc(F)cc1-c1ccnc(Nc2ccc3c(c2)CN(CC2CCN(c4ccc5c(c4)C(=O)N(C4CCC(=O)NC4=O)C5=O)CC2)CC3)n1 (centres unmarked)")
"−7"
>>> measured_result("Cc1cc(-c2ccnc(Nc3ccc(N4CC(CN5CCN(c6ccc7c(c6)C(=O)N(C6CCC(=O)NC6=O)C7=O)CC5)C4)cc3)n2)ccc1CNC(=O)N1CC(OC(C)C)C1 (centres unmarked)")
100.0

Then there is this compound:
Query: # input compound: Cc1cc(-c2ccnc(Nc3ccc(N4CCC(C(=O)N5CCC(c6ccc(OC7CCC(=O)NC7=O)cc6)CC5)CC4)cc3)n2)ccc1CNC(=O)N1CC(OC(C)C)C1 (centres unmarked) ; wanted: its BTK degradation (%) 100 nM
Reply: 97.5

###

Biological target: BTK protein (Homo sapiens, UniProt Q06187)
Construct: endogenous in cells; host or cells: TMD-8 cells
Sequence (Q06187 whole entry): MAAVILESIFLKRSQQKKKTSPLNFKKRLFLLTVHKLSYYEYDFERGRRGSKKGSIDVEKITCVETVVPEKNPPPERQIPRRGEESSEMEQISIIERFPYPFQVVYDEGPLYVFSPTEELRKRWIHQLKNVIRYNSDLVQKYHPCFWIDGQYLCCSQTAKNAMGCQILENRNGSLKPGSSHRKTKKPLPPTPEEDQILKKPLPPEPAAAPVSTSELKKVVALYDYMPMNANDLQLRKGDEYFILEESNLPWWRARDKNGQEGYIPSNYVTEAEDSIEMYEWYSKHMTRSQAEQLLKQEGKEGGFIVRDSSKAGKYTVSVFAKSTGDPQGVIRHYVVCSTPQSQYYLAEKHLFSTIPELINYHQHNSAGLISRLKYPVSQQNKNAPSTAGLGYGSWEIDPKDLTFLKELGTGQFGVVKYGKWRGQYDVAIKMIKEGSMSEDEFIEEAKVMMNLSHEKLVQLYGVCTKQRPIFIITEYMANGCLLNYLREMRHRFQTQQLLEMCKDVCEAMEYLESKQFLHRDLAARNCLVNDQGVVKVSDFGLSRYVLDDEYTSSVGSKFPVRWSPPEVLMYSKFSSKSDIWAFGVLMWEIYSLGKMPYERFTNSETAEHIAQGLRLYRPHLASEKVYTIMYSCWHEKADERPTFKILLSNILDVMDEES
Experiment: Measurement of BTK protein degradation ability in TMD-8 cells (Western blotting)
Type: cell-based
Settings: compound 10 nM, harvested after 24 hours
Recorded measurements of BTK degradation (%) 10 nM, one per entry
Give the value, in units of %, as a plain number.

>>> measured_result("Cc1cc(-c2ccnc(Nc3ccc(N4CCN(CC5CCN(c6cccc(N7CCC(=O)NC7=O)c6)CC5)CC4)cc3)n2)ccc1CNC(=O)c1cn(C(C)(C)C)nn1")
97.5

Query: What BTK degradation (%) 10 nM value was documented for this compound, Cc1cc(-c2ccnc(Nc3ccc(N4CCN(CC5CCN(Cc6cccc(NC7CCC(=O)NC7=O)c6)CC5)CC4)cc3)n2)ccc1CNC(=O)N1CC(OC(C)C)C1 (stereo not drawn) ?
Reply: 97.0

Query: What value of measured BTK degradation (%) 10 nM is listed for Cc1cc(NC(=O)N2CC(OC(C)C)C2)cc(-c2ccnc(Nc3ccc(N4CCN(CC5CCN(c6ccc7c(c6)C(=O)N(C6CCC(=O)NC6=O)C7=O)CC5)CC4)cc3)n2)c1 (stereo not drawn) ?
Reply: 40.5

Query: // returns reported BTK degradation (%) 10 nM for input Cc1cc(-c2ccnc(Nc3ccc(N4CCC(C(=O)N5CCC(c6ccc(OC7CCC(=O)NC7=O)cc6)CC5)CC4)cc3)n2)ccc1CNC(=O)N1CC(OC(C)C)C1 (stereo not drawn)
Reply: 68.0

Query: // query BTK degradation (%) 10 nM value for entry Cc1cc(-c2ccnc(Nc3cnn(C4CCN(CC5CN(c6ccc7c(c6)C(=O)N(C6CCC(=O)NC6=O)C7=O)C5)CC4)c3)n2)ccc1CNC(=O)c1cnn(C(C)(C)C)c1 (stereo not drawn)
Reply: 96

Query: Would you mind telling me what BTK degradation (%) 10 nM value was observed for Cc1cc(-c2ccnc(Nc3ccc(C4CCN(CC5CN(c6ccc7c(c6)C(=O)N(C6CCC(=O)NC6=O)C7=O)C5)CC4)cc3)n2)ccc1CNC(=O)c1cnn(C(C)C)c1 (stereo not drawn) ?
Reply: 95.0

Query: If you can, please state the reported BTK degradation (%) 10 nM value of Cc1c(NC(=O)c2cnn(C(C)(C)C)c2)cc(F)cc1-c1ccnc(Nc2ccc3c(c2)CN(CC2CCN(c4ccc5c(c4)C(=O)N(C4CCC(=O)NC4=O)C5=O)CC2)CC3)n1 (stereo not drawn) .
Reply: −12

Query: Could you share which BTK degradation (%) 10 nM value was measured for Cc1cc(-c2ccnc(Nc3ccc(N4CC(CN5CCN(c6ccc7c(c6)C(=O)N(C6CCC(=O)NC6=O)C7=O)CC5)C4)cc3)n2)ccc1CNC(=O)N1CC(OC(C)C)C1 (stereo not drawn) ?
Reply: 97.0

###

As shown below, each of these compounds has a reported BTK degradation (%) 1 nM value.
Target: BTK protein (Homo sapiens)
Construct: endogenous in cells; host or cells: TMD-8 cells
Assay: Measurement of BTK protein degradation ability in TMD-8 cells (Western blotting)
Format: cell-based
Details: compound 1 nM, harvested after 24 hours
# output: bare number, implied unit %

Here's what some known entries look like.
>>> measured_result("Cc1cc(-c2ccnc(Nc3ccc(N4CCN(CC5CCN(c6ccc(NC7CCC(=O)NC7=O)cc6F)CC5)CC4)cc3)n2)ccc1CNC(=O)c1cn(C(C)(C)C)nn1 (centres unmarked) [Example 72]")
62.5
>>> measured_result("Cc1cc(-c2ccnc(Nc3ccc(N4CCN(C5CCN(c6ccc7c(c6)C(=O)N(C6CCC(=O)NC6=O)C7=O)CC5)CC4)cc3)n2)ccc1CNC(=O)N1CC(OC(C)C)C1 (centres unmarked) [Example 109]")
41.5
>>> measured_result("Cc1cc(-c2ccnc(Nc3ccc(C4CN(CC5CCN(c6ccc7c(c6)C(=O)N(C6CCC(=O)NC6=O)C7=O)CC5)C4)cc3)n2)ccc1CNC(=O)N1CC(OC(C)C)C1 (centres unmarked) [Example 41]")
81.5
>>> measured_result("CC(C)(C)n1cc(C(=O)NCc2ccc(-c3ccnc(Nc4ccc(N5CCC(CN6CCC(c7ccc(NC8CCC(=O)NC8=O)cc7)CC6)CC5)cc4)n3)cc2CO)nn1 (centres unmarked) [Example 143]")
74.0
>>> measured_result("Cc1cc(-c2ccnc(Nc3ccc(N4CCC(CN5CCC(c6ccc(OC7CCC(=O)NC7=O)cn6)CC5)CC4)cc3)n2)ccc1CNC(=O)N1CC(OC(C)C)C1 (centres unmarked) [Example 124]")
"−1.3"
>>> measured_result("Cc1cc(-c2ccnc(Nc3ccc(N4CCN(CC5CCN(c6cccc(NC7CCC(=O)NC7=O)c6)CC5)CC4)cc3)n2)ccc1CNC(=O)N1CC(OC(C)C)C1 (centres unmarked) [Example 54]")
38.7

Query: Requested read-out: BTK degradation (%) 1 nM. Entry: Cc1cc(-c2ccnc(Nc3ccc(C4CCN(CC5CN(c6ccc7c(c6)C(=O)N(C6CCC(=O)NC6=O)C7=O)C5)CC4)nc3)n2)ccc1CNC(=O)N1CC(OC(C)C)C1 (centres unmarked) [Example 20]
Reply: 49

Query: Quick one: BTK degradation (%) 1 nM of Cc1cc(-c2ccnc(Nc3ccc(N4CCC(CN5CCC(c6ccc(NC7CCC(=O)NC7=O)cn6)CC5)CC4)cc3)n2)ccc1CNC(=O)c1cn(C(C)(C)C)nn1 (centres unmarked) [Example 132] ?
Reply: 54.5

Query: I am curious: what BTK degradation (%) 1 nM value has been reported for Cc1cc(-c2ccnc(Nc3ccc(N4CCN(CC5CCN(c6cccc(N7CCC(=O)NC7=O)c6)CC5)CC4)cc3)n2)ccc1CNC(=O)N1CC(OC(C)C)C1 [Example 65] ?
Reply: 32.5

Query: Need BTK degradation (%) 1 nM of Cc1cc(-c2ccnc(Nc3ccc(N4CCC(CN5CCC(c6ccc(NC7CCC(=O)NC7=O)cn6)CC5)CC4)cc3)n2)ccc1CNC(=O)c1cnn(C(C)C)c1 (centres unmarked) [Example 128] , thanks.
Reply: 51.5

Query: Need BTK degradation (%) 1 nM, item Cc1cc(-c2ccnc(Nc3ccc(C4CCN(CC5CCN(c6ccc7c(c6)C(=O)N(C6CCC(=O)NC6=O)C7=O)CC5)CC4)cc3)n2)ccc1CNC(=O)N1CC(OC(C)C)C1 (centres unmarked) [Example 15]
Reply: 56.5

###

Target: BTK protein (Homo sapiens)
Construct: endogenous in cells; host or cells: TMD-8 cells
Assay: Measurement of BTK protein degradation ability in TMD-8 cells (Western blotting)
Format: cell-based
Details: compound 10 nM, harvested after 24 hours
Readout: BTK degradation (%) 10 nM
Give the number; % is assumed, so skip it.

>>> measured_result("Cc1cc(-c2ccnc(Nc3ccc(C4CN(CC5CCN(c6ccc7c(c6)C(=O)N(C6CCC(=O)NC6=O)C7=O)CC5)C4)cc3)n2)ccc1CNC(=O)N1CC(OC(C)C)C1 (centres unmarked) [Example 41]")
100.0

Query: Requested field: BTK degradation (%) 10 nM. Item: Cc1cc(-c2ccnc(Nc3ccc(N4CCC(CN5CCC(c6ccc(NC7CCC(=O)NC7=O)cn6)CC5)CC4)cc3)n2)ccc1CNC(=O)c1cnn(C(C)(C)C)c1 (centres unmarked) [Example 130]
Reply: 95.0

Query: Quick one: BTK degradation (%) 10 nM for Cc1cc(-c2ccnc(Nc3ccc(N4CCN(CC5CCN(c6cccc(N7CCC(=O)NC7=O)c6)CC5)CC4)cc3)n2)ccc1CNC(=O)N1CC(OC(C)C)C1 [Example 65] ?
Reply: 92.0

Query: I would be grateful if you could share the reported BTK degradation (%) 10 nM for Cc1c(NC(=O)N2CC(OC(C)C)C2)cc(F)cc1-c1ccnc(Nc2ccc(N3CCN(CC4CCN(CC(=O)Nc5cccc(NC6CCC(=O)NC6=O)c5)CC4)CC3)cc2)n1 (centres unmarked) [Example 106] .
Reply: 20

Query: What value of BTK degradation (%) 10 nM has been reported for the following compound? Cc1cc(-c2ccnc(Nc3ccc(C4CCN(CC5CCN(c6cccc(N7CCC(=O)NC7=O)c6)CC5)CC4)cc3)n2)ccc1CNC(=O)c1cnn(C(C)(C)C)c1 [Example 85]
Reply: 93.5
